Substrate: CC(C)C[C@H](N)C(=O)Nc1ccc([N+](=O)[O-])cc1
Assay: purified protein
Format: biochemical, Pyrococcus horikoshii
Conditions: pH 7.5 (20 mM Tris, 100 mM NaCl), 50 °C, 2.8% DMSO, 0.1-6.4 mM substrate
We begin with a simple list: items and their reported Km.
The response must be a number in mM with no trailing unit.

TET2 (Pyrococcus horikoshii OT3; H123Y) (protein, full length, 353 residues per subunit, pET41c in E. coli BL21(DE3), no tag mentioned (heat step, Resource Q, Superdex 200), 39 kDa subunit, 468 kDa homododecamer, two Zn per active site) MEVRNMVDYELLKKVVEAPGVSGYEFLGIRDVVIEEIKDYVDEVKVDKLGNVIAHKKGEGPKVMIAAHMDQIGLMVTHIEKNGFLRVAPIGGVDPKTLIAQRFKVWIDKGKFIYGVGASVPPYIQKPEDRKKAPDWDQIFIDIGAESKEEAEDMGVKIGTVITWDGRLERLGKHRFVSIAFDDRIAVYTILEVAKQLKDAKADVYFVATVQEEVGLRGARTSAFGIEPDYGFAIDVTIAADIPGTPEHKQVTHLGKGTAIKIMDRSVICHPTIVRWLEELAKKHEIPYQLEILLGGGTDAGAIHLTKAGVPTGALSVPARYIHSNTEVVDERDVDATVELMTKALENIHELKI: 13.8

Query string: Need Km, item TET2 (Pyrococcus horikoshii OT3; H123F) (protein, full length, 353 residues per subunit, pET41c in E. coli BL21(DE3), no tag mentioned (heat step, Resource Q, Superdex 200), 39 kDa subunit, 468 kDa homododecamer, two Zn per active site) MEVRNMVDYELLKKVVEAPGVSGYEFLGIRDVVIEEIKDYVDEVKVDKLGNVIAHKKGEGPKVMIAAHMDQIGLMVTHIEKNGFLRVAPIGGVDPKTLIAQRFKVWIDKGKFIYGVGASVPPFIQKPEDRKKAPDWDQIFIDIGAESKEEAEDMGVKIGTVITWDGRLERLGKHRFVSIAFDDRIAVYTILEVAKQLKDAKADVYFVATVQEEVGLRGARTSAFGIEPDYGFAIDVTIAADIPGTPEHKQVTHLGKGTAIKIMDRSVICHPTIVRWLEELAKKHEIPYQLEILLGGGTDAGAIHLTKAGVPTGALSVPARYIHSNTEVVDERDVDATVELMTKALENIHELKI
Result string: 14.4

Query string: Need Km, item TET2 (Pyrococcus horikoshii OT3) (protein, full length, 353 residues per subunit, pET41c in E. coli BL21(DE3), no tag mentioned (heat step, Resource Q, Superdex 200), 39 kDa subunit, 468 kDa homododecamer, two Zn per active site) MEVRNMVDYELLKKVVEAPGVSGYEFLGIRDVVIEEIKDYVDEVKVDKLGNVIAHKKGEGPKVMIAAHMDQIGLMVTHIEKNGFLRVAPIGGVDPKTLIAQRFKVWIDKGKFIYGVGASVPPHIQKPEDRKKAPDWDQIFIDIGAESKEEAEDMGVKIGTVITWDGRLERLGKHRFVSIAFDDRIAVYTILEVAKQLKDAKADVYFVATVQEEVGLRGARTSAFGIEPDYGFAIDVTIAADIPGTPEHKQVTHLGKGTAIKIMDRSVICHPTIVRWLEELAKKHEIPYQLEILLGGGTDAGAIHLTKAGVPTGALSVPARYIHSNTEVVDERDVDATVELMTKALENIHELKI
Result string: 3.2

Query string: Need Km, item TET2 (Pyrococcus horikoshii OT3; H123K) (protein, full length, 353 residues per subunit, pET41c in E. coli BL21(DE3), no tag mentioned (heat step, Resource Q, Superdex 200), 39 kDa subunit, 468 kDa homododecamer, two Zn per active site) MEVRNMVDYELLKKVVEAPGVSGYEFLGIRDVVIEEIKDYVDEVKVDKLGNVIAHKKGEGPKVMIAAHMDQIGLMVTHIEKNGFLRVAPIGGVDPKTLIAQRFKVWIDKGKFIYGVGASVPPKIQKPEDRKKAPDWDQIFIDIGAESKEEAEDMGVKIGTVITWDGRLERLGKHRFVSIAFDDRIAVYTILEVAKQLKDAKADVYFVATVQEEVGLRGARTSAFGIEPDYGFAIDVTIAADIPGTPEHKQVTHLGKGTAIKIMDRSVICHPTIVRWLEELAKKHEIPYQLEILLGGGTDAGAIHLTKAGVPTGALSVPARYIHSNTEVVDERDVDATVELMTKALENIHELKI
Result string: 17.0
